# assay.explanation: Study 1 MAD part: plasma and urine pharmacokinetics, once daily for 14 days
# Assay type: in vivo, human
# recorded.conditions: male, human, plasma, oral, 50 mg, 50 mg once daily, day 14; mean (CV%)
measure: Cmax (ng/mL)
Express your answer in ng/mL, writing the number without its unit.

### Prompt For the compound O=c1nc(OC[C@@H]2COCCO2)cc2n1CCc1cc(C#CC3CC3)ccc1-2 , what Cmax is on record?
### Response 2050

* * *

# assay.explanation: Study 1 SAD part: plasma pharmacokinetics after single oral doses
# Type: in vivo, human
# recorded.conditions: male, human, plasma, oral; single 90 mg; arithmetic mean (CV%)
measure: Cmax (ng/mL)
Write the answer as a number in ng/mL, unit excluded.

### Prompt Recorded Cmax of O=c1nc(OC[C@@H]2COCCO2)cc2n1CCc1cc(C#CC3CC3)ccc1-2 [GLPG1205] , please.
### Response 890

* * *

# assay.explanation: Study 2 part 1: effect of aging on pharmacokinetics, 50 mg once daily for 14 days
# Assay type: in vivo, human
# recorded.conditions: male, human, plasma, oral, 50 mg, 50 mg once daily, cohort B ≥75 y, day 1; mean (CV%); read-out: C24h
measure: concentration at 24 h
# number then unit; no other words

### Prompt Look at this compound and give its reported concentration at 24 h. O=c1nc(OC[C@@H]2COCCO2)cc2n1CCc1cc(C#CC3CC3)ccc1-2 [GLPG1205]
### Response 290 ng/mL

* * *

# assay.explanation: Study 1 MAD part: plasma and urine pharmacokinetics, once daily for 14 days
# Assay type: in vivo, human
# recorded.conditions: male, human, plasma, oral, 100 mg, 100 mg once daily, day 14; mean (CV%); read-out: t1/2,λz (converted)
measure: half-life

### Prompt State the recorded half-life for this entry: O=c1nc(OC[C@@H]2COCCO2)cc2n1CCc1cc(C#CC3CC3)ccc1-2
### Response 88.6 h

* * *

# assay.explanation: Study 1 SAD part: plasma pharmacokinetics after single oral doses
# Assay type: in vivo, human
# recorded.conditions: male, human, plasma, oral; after single administration, 10 to 800 mg; read-out: median tmax range
measure: Tmax

### Prompt Request the reported Tmax associated with O=c1nc(OC[C@@H]2COCCO2)cc2n1CCc1cc(C#CC3CC3)ccc1-2
### Response 2 to 4 h

* * *

# assay.explanation: Study 1 MAD part: plasma and urine pharmacokinetics, once daily for 14 days
# Type: in vivo, human
# recorded.conditions: male, human, plasma, oral, 50 mg, 50 mg once daily, day 1; mean (CV%)
# Method: GLPG1205 or matching placebo were administered as an oral nanosuspension in the morning in a fed condition as an outpatient. […] GLPG1205 plasma concentrations were determined using a validated liquid chromatography with tandem mass spectrometry method. […] A QTRAP6500, QTRAP4000, or API4000 mass spectrometer (AB Sciex, Nieuwerkerk aan den Ijssel, The Netherlands) equipped with a TurboIonSpray probe operated in the multiple reaction monitoring in positive mode was used for quantification. […]
measure: Cmax (ng/mL)
# unit: ng/mL | format: bare number

### Prompt Requested read-out: Cmax. Entry: O=c1nc(OC[C@@H]2COCCO2)cc2n1CCc1cc(C#CC3CC3)ccc1-2
### Response 469

* * *

# assay.explanation: Study 2 part 1: effect of aging on pharmacokinetics, 50 mg once daily for 14 days
# Type: in vivo, human
# recorded.conditions: male, human, plasma, oral, 50 mg, 50 mg once daily, cohort A 65-74 y, day 1; mean (CV%); read-out: C24h
# Description: During study 2, GLPG1205 50 mg or matching placebo was administered as capsules in the morning 30 minutes after the start of a standard breakfast. Subjects were kept in‐house from the evening of day –1 to ≈26 hours after the first dose (day 2), and from the evening of day 13 until day 15. […] GLPG1205 plasma concentrations were determined using a validated liquid chromatography with tandem mass spectrometry method. […] The limit of quantification of the assay in the plasma samples was set at 1 ng/mL. […]
measure: concentration at 24 h (ng/mL)
Answer in ng/mL, number only, no unit symbol.

### Prompt concentration at 24 h for O=c1nc(OC[C@@H]2COCCO2)cc2n1CCc1cc(C#CC3CC3)ccc1-2 [GLPG1205] ?
### Response 334
